Reference for the values: patent US3965109A

test system: larvae of the blowfly (Lucilia serrata); assay: Insecticidal test on blowfly larvae on treated filter paper; type: in vivo; design: key: 5 represents inseccticidal activity equal to that of the known insecticide; 6 represents activity 10 times that of the standard; details: scale of 1 to 6; filter paper with horse serum
# key: entry, value: Activity relative to lindane
ASSAY READOUT: Activity relative to lindane

{"SMILES INPUT": "O=[N+]([O-])c1cc([N+](=O)[O-])c2ccccc2c1Nc1c(Cl)c(F)nc(F)c1Cl", "ASSAY READOUT": "Activity relative to lindane", "OBSERVED": 5}
{"SMILES INPUT": "N#Cc1c(F)c(F)c(Nc2c(Cl)c(F)nc(F)c2Cl)c(F)c1F", "ASSAY READOUT": "Activity relative to lindane", "OBSERVED": 5}
{"SMILES INPUT": "N#Cc1cc([N+](=O)[O-])c(Nc2c(Cl)c(F)nc(F)c2Cl)c([N+](=O)[O-])c1", "ASSAY READOUT": "Activity relative to lindane", "OBSERVED": 5}

###

system: Agriolimax reticulatus (slugs); assay: Molluscicidal activity test; type: in vivo, Agriolimax reticulatus (Mull); conditions: pellet with 4% by weight; 6 days; 10°C
# key: entry, value: % Kill of slugs

{"SMILES INPUT": "O=[N+]([O-])c1cc([N+](=O)[O-])c2ccccc2c1Nc1c(Cl)c(F)nc(F)c1Cl", "TARGET ENTITY": "Agriolimax reticulatus (slugs)", "% Kill of slugs": "50%"}
{"SMILES INPUT": "Fc1nc(F)c(Cl)c(Nc2c(Cl)c(F)c(Cl)c(F)c2Cl)c1Cl", "TARGET ENTITY": "Agriolimax reticulatus (slugs)", "% Kill of slugs": "100%"}
{"SMILES INPUT": "O=[N+]([O-])c1ccc(Nc2c(F)c(F)nc(F)c2F)c([N+](=O)[O-])c1", "TARGET ENTITY": "Agriolimax reticulatus (slugs)", "% Kill of slugs": "50%"}
{"SMILES INPUT": "O=[N+]([O-])c1ccc(Nc2c(Cl)c(Cl)nc(Cl)c2Cl)c([N+](=O)[O-])c1", "TARGET ENTITY": "Agriolimax reticulatus (slugs)", "% Kill of slugs": "100%"}
{"SMILES INPUT": "N#Cc1c(F)c(F)c(Nc2c(Cl)c(Cl)nc(Cl)c2Cl)c(F)c1F", "TARGET ENTITY": "Agriolimax reticulatus (slugs)", "% Kill of slugs": "50%"}
{"SMILES INPUT": "O=[N+]([O-])c1cc(Cl)cc([N+](=O)[O-])c1Nc1c(Cl)c(F)nc(F)c1Cl", "TARGET ENTITY": "Agriolimax reticulatus (slugs)", "% Kill of slugs": "50%"}

###

system: Tomato; assay: Herbicidal test, pre- and post-emergence; format: in vivo; settings: 10 kg/ha; scale 0 to 3 (complete kill)
# key: entry, value: Damage to plants, post-emergence
ASSAY READOUT: Damage to plants, post-emergence

{"COMPOUND": "O=[N+]([O-])c1cc(Cl)c(Nc2c(Cl)c(F)nc(F)c2Cl)c(Cl)c1 [Compound 27]", "ASSAY READOUT": "Damage to plants, post-emergence", "OBSERVED": 1}
{"COMPOUND": "N#Cc1cc([N+](=O)[O-])c(Nc2c(Cl)c(F)nc(F)c2Cl)c([N+](=O)[O-])c1 [Compound 34]", "ASSAY READOUT": "Damage to plants, post-emergence", "OBSERVED": 0}
{"COMPOUND": "O=[N+]([O-])c1cc(Br)c(Nc2c(Cl)c(F)nc(F)c2Cl)c([N+](=O)[O-])c1 [Compound 40]", "ASSAY READOUT": "Damage to plants, post-emergence", "OBSERVED": 1}
{"COMPOUND": "O=[N+]([O-])c1ccc(Nc2c(F)c(F)nc(F)c2F)c(C(F)(F)F)c1 [Compound 28]", "ASSAY READOUT": "Damage to plants, post-emergence", "OBSERVED": 3}
